pIC50: −log10 of the molar value.
Rho-associated protein kinase 1 (Homo sapiens): reported pIC50 for various compounds.
READOUT: pIC50

Worked cases, answers included:
Please tell me: pIC50 of O=C(C1CCC1)N1CCC(c2cc(-c3ccnc4[nH]ccc34)[nH]n2)CC1 , system Rho-associated protein kinase 1 (Homo sapiens)?
6.07

Try this compound next: c1ccc(CN2CCC(c3cc(-c4ccnc5[nH]ccc45)[nH]n3)CC2)cc1
6.71

[1] COc1ccc(CN2CCC(c3cc(-c4ccnc5[nH]ccc45)[nH]n3)CC2)cc1
[2] COc1ccc(C(=O)N2CCC(c3cc(-c4ccnc5[nH]ccc45)[nH]n3)CC2)cc1OC
Could you point out whether the larger pIC50 belongs to 1 or to 2 ? Record your answer as the label of the chosen record.
1

[P] O=C(c1ccc(F)c(F)c1)N1CCC(c2cc(-c3ccnc4[nH]ccc34)[nH]n2)CC1
[Q] FC(F)(F)c1cccc(CN2CCC(c3cc(-c4ccnc5[nH]ccc45)[nH]n3)CC2)c1
Lab notebook, comparison: P versus Q , higher pIC50 goes to which? Use the label to indicate which entry you chose.
P

###

target: Rho-associated protein kinase 1 (Homo sapiens, UniProt Q13464)
Sequence (Q13464 whole entry): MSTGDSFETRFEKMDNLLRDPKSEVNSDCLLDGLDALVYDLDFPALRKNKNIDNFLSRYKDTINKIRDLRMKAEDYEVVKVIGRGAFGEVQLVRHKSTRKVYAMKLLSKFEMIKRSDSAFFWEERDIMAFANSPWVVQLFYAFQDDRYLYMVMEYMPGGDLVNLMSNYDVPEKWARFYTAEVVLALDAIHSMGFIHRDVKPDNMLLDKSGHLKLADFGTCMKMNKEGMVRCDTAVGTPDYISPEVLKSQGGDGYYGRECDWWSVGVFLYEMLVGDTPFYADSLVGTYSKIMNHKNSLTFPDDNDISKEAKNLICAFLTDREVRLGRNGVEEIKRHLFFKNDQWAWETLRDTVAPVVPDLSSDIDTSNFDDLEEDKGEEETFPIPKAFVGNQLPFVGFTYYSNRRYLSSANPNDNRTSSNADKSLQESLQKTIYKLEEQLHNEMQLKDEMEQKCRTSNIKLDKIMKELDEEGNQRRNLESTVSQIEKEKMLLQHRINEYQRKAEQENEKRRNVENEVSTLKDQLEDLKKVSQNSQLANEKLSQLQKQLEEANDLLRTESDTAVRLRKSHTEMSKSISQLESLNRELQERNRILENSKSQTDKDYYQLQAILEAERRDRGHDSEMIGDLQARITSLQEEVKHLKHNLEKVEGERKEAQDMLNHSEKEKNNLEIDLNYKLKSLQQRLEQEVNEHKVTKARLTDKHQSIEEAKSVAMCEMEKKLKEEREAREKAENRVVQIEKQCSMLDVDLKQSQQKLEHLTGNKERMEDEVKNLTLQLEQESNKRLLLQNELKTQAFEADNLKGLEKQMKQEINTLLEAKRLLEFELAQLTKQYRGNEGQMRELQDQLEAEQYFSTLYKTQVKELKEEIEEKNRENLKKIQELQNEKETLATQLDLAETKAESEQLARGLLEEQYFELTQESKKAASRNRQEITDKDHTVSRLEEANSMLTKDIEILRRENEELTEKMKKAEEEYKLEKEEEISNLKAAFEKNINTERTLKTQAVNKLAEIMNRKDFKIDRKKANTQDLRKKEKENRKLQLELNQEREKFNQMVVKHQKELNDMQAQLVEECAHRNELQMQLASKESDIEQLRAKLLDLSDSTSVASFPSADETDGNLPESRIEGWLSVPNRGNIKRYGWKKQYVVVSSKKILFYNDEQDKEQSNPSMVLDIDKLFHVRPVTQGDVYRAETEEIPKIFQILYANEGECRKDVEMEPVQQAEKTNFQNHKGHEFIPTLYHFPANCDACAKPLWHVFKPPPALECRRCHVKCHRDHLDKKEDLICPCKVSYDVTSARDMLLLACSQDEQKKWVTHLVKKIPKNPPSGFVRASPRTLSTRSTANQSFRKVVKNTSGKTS
READOUT: IC50 (nM)

Use the examples below as a reference point.
Need IC50, item N#CCN1CCC(c2cc(-c3ccnc4[nH]ccc34)[nH]n2)CC1
261

Now the same for O=C(C1CC1)N1CCC(c2cc(-c3ccnc4[nH]ccc34)[nH]n2)CC1
1010

[a] c1cc(-c2cc(C3CCNCC3)n[nH]2)c2cc[nH]c2n1
[b] CC(=O)c1ccc(C(=O)N2CCC(c3cc(-c4ccnc5[nH]ccc45)[nH]n3)CC2)cc1
// which entry reports the smaller IC50, a or b ? Answer format: the label of the selected item.
a

[1] O=C(Cc1ccccc1)N1CCC(c2cc(-c3ccnc4[nH]ccc34)[nH]n2)CC1
[2] c1ccc(Oc2cccc(CN3CCC(c4cc(-c5ccnc6[nH]ccc56)[nH]n4)CC3)c2)cc1
Just tell me: smaller IC50 value, 1 or 2 ? Your choice should be expressed through its label.
1

[a] Fc1ccc(CN2CCC(c3cc(-c4ccnc5[nH]ccc45)[nH]n3)CC2)cc1F
[b] CC(=O)c1cccc(CN2CCC(c3cc(-c4ccnc5[nH]ccc45)[nH]n3)CC2)c1
Hey, between a and b which has a smaller measured IC50? Reply briefly: the label of your chosen item.
a
(a: 425 nM, b: 895 nM)

[a] O=C(C1CCCC1)N1CCC(c2cc(-c3ccnc4[nH]ccc34)[nH]n2)CC1
[b] O=C(c1ccc(F)cc1)N1CCC(c2cc(-c3ccnc4[nH]ccc34)[nH]n2)CC1
For the pair a and b , which member has the lower IC50 number? Your answer should be the label of the entry you select.
b

###

test system: Mitochondrial membrane; test: Induction of mitochondrial membrane potential in human HTM cells at 1 uM incubated for 24 hrs by JC-1 staining based flow cytometry analysis
Active and inactive are the calls of the source. The rule behind the calls is not given here.
READOUT: Activity

If you can, please state the reported Activity value of Cc1ccc(C(=O)OCc2ccc([C@@H](CN)C(=O)Nc3ccc4cnccc4c3)cc2)c(C)c1 .
inactive

Try C[C@H]1CNCCCN1S(=O)(=O)c1cccc2cncc(F)c12 next.
inactive

Try this compound next: c1cc(-c2cc(C3CCNCC3)n[nH]2)c2cc[nH]c2n1
inactive

###

molecular target: MAP kinase-interacting serine/threonine-protein kinase 2 (Homo sapiens); assay: Inhibition of MNK2 (unknown origin) at 5 uM preincubated for 10 mins followed by substrate addition and measured after 60 mins by ADP-glo kinase assay relative to control; conditions: time 70.0 min
READOUT: inhibition (%)

[P] Cc1ccc(CN2CCC(c3cc(-c4ccnc5[nH]ccc45)[nH]n3)CC2)cc1
[Q] FC(F)(F)c1cccc(CN2CCC(c3cc(-c4ccnc5[nH]ccc45)[nH]n3)CC2)c1
Could you kindly indicate whether P or Q has the higher inhibition value? Your answer should be the label attached to the chosen record.
P
(P: 82.2%, Q: 57.2%)

###

Parameter 'readout' = IC50; parameter 'system' = Rho-associated protein kinase 2 (Homo sapiens).
Sequence (O75116 whole entry): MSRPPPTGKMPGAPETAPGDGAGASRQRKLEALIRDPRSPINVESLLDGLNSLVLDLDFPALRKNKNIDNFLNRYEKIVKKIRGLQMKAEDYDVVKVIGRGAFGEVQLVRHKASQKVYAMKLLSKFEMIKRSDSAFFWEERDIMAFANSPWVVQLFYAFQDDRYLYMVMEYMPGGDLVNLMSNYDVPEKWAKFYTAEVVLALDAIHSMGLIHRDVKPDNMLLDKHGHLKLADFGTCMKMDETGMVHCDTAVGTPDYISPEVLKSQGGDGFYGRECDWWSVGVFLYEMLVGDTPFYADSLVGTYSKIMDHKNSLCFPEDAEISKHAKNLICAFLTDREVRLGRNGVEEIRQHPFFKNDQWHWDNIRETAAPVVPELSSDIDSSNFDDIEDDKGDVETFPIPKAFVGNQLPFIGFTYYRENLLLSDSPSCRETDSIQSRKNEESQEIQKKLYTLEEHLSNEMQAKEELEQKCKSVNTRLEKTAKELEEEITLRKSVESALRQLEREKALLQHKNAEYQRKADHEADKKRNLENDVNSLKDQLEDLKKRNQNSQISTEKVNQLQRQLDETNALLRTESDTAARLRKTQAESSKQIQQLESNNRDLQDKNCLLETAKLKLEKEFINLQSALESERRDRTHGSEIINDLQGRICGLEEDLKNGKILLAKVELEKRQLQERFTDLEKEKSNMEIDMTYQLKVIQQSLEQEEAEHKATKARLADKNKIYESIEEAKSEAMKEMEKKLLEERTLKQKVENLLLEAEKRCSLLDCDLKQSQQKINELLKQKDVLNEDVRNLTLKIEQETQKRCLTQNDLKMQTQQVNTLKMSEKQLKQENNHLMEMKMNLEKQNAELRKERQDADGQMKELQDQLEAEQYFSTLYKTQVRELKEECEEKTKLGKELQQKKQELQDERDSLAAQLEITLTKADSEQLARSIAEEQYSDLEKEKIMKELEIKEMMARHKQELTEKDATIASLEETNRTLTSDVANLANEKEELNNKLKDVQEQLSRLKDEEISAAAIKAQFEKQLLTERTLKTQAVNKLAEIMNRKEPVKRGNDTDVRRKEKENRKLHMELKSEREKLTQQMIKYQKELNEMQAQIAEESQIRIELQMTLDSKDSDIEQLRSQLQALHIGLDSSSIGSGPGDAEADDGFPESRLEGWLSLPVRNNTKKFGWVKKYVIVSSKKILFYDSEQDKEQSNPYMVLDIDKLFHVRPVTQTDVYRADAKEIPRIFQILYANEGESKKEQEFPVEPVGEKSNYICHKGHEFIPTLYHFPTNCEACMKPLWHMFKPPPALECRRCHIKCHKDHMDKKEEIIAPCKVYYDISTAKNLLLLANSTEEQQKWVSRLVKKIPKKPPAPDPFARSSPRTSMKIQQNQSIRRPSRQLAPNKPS
READOUT: IC50 (nM)

As a guide, the following entries are already answered.
Look up IC50 for this molecule: COC(=O)c1cccc(CN2CCC(c3cc(-c4ccnc5[nH]ccc45)[nH]n3)CC2)c1
390

# repeat for O=C(Cc1ccccc1)N1CCC(c2cc(-c3ccnc4[nH]ccc34)[nH]n2)CC1
433

[A] CC(=O)c1cccc(CN2CCC(c3cc(-c4ccnc5[nH]ccc45)[nH]n3)CC2)c1
[B] O=C(c1ccc(Cl)cc1)N1CCC(c2cc(-c3ccnc4[nH]ccc34)[nH]n2)CC1
Pick one, A or B : lowest reported IC50. Write the label of whichever entry you select.
B
(B: 369 nM, A: 823 nM)

###

target: MAP kinase-interacting serine/threonine-protein kinase 1 (Homo sapiens); assay: Inhibition of MNK1 (unknown origin) at 5 uM preincubated for 10 mins followed by substrate addition and measured after 60 mins by ADP-glo kinase assay relative to control; details: time 70.0 min
READOUT: inhibition (%)

Observe how each entry below is paired with its result.
Could you tell me which inhibition is on file for c1ccc(Oc2cccc(CN3CCC(c4cc(-c5ccnc6[nH]ccc56)[nH]n4)CC3)c2)cc1 ?
68.1

# iterate: C=CC(=O)N1CCC(c2cc(-c3ccnc4[nH]ccc34)[nH]n2)CC1
56

[P] O=C(Cc1ccccc1)N1CCC(c2cc(-c3ccnc4[nH]ccc34)[nH]n2)CC1
[Q] COc1ccc(CC(=O)N2CCC(c3cc(-c4ccnc5[nH]ccc45)[nH]n3)CC2)cc1
[R] Cc1ccc(C(=O)N2CCC(c3cc(-c4ccnc5[nH]ccc45)[nH]n3)CC2)cc1
Ascending by inhibition, please. Rank the items, then write their labels in that order.
Q, P, R
(Q: 8.8%, P: 49.7%, R: 74.4%)

###

molecular target: MAP kinase-interacting serine/threonine-protein kinase 1 (Homo sapiens, UniProt Q9BUB5); assay: Inhibition of MNK1 (unknown origin) at 5 uM preincubated for 10 mins followed by substrate addition and measured after 60 mins by ADP-glo kinase assay relative to control; conditions: time 70.0 min
Sequence (Q9BUB5 whole entry, looked up): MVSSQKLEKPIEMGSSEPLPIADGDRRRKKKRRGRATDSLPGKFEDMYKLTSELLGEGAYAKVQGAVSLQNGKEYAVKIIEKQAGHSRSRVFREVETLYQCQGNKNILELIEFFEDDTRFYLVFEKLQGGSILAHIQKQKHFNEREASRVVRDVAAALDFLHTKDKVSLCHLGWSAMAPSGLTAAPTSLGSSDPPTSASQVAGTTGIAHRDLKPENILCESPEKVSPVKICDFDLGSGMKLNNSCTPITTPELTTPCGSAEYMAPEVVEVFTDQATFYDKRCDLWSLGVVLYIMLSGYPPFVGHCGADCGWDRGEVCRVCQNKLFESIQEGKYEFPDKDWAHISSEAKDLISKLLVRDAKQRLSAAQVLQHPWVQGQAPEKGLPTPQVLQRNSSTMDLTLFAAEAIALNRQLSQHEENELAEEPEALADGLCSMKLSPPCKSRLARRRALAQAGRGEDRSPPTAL
READOUT: inhibition (%)

# example entries with known answers
Given the compound O=C(c1ccc(Cl)cc1)N1CCC(c2cc(-c3ccnc4[nH]ccc34)[nH]n2)CC1 , what is its reported inhibition?
82.2

What about this compound? O=C(c1ccc(F)c(F)c1)N1CCC(c2cc(-c3ccnc4[nH]ccc34)[nH]n2)CC1
67.2

And then c1ccc(CN2CCC(c3cc(-c4ccnc5[nH]ccc45)[nH]n3)CC2)cc1 , what is it?
73.2

Note, next up: Cc1cccc(CN2CCC(c3cc(-c4ccnc5[nH]ccc45)[nH]n3)CC2)c1
71.4

Another compound to look at: CCS(=O)(=O)N1CCC(c2cc(-c3ccnc4[nH]ccc34)[nH]n2)CC1
16

[I] COc1cccc(CC(=O)N2CCC(c3cc(-c4ccnc5[nH]ccc45)[nH]n3)CC2)c1
[II] COc1ccc(C(=O)N2CCC(c3cc(-c4ccnc5[nH]ccc45)[nH]n3)CC2)cc1
// select label with min value of measured inhibition from [ I , II ] To answer, give the label that identifies your chosen option.
I

[A] O=C(CC1CC1)N1CCC(c2cc(-c3ccnc4[nH]ccc34)[nH]n2)CC1
[B] COc1ccc(CN2CCC(c3cc(-c4ccnc5[nH]ccc45)[nH]n3)CC2)cc1OC
Compare A and B by numeric inhibition and name the larger one. Field: selected label. Fill in the label of the entry you choose.
B

###

pIC50, Rho-associated protein kinase 2 (Homo sapiens), per-entry values.
pIC50: −log10 of the molar value.
READOUT: pIC50

Please review the entries below; each comes with its answer.
Please look up its pIC50: c1ccc(CN2CCC(c3cc(-c4ccnc5[nH]ccc45)[nH]n3)CC2)cc1
6.76

Subsequent entry: CCS(=O)(=O)N1CCC(c2cc(-c3ccnc4[nH]ccc34)[nH]n2)CC1
6.80

[A] COc1ccc(CN2CCC(c3cc(-c4ccnc5[nH]ccc45)[nH]n3)CC2)cc1
[B] FC(F)(F)c1cccc(CN2CCC(c3cc(-c4ccnc5[nH]ccc45)[nH]n3)CC2)c1
Which has the smaller recorded pIC50, A or B ? Could you answer with the label of the item you picked?
B

###

tested on: HTM; assay: Inhibition of H2O2-induced ROS production in human HTM cells assessed as decrease in green fluorescence at 1 uM preincubated for 1 hrs followed by H2O2 induction for 2 hrs and measured after 30 mins by DCFH-DA based fluorescence microscopic analysis; assay type: functional, cell-based; conditions: time 3.5 hrs
Calls of active or inactive are those of the source. The rule behind the calls is not given here.
READOUT: inhibition

Fill in the blank: the reported inhibition of c1cc(-c2cc(C3CCNCC3)n[nH]2)c2cc[nH]c2n1 is ____.
Active

Cc1ccc(C(=O)OCc2ccc([C@@H](CN)C(=O)Nc3ccc4cnccc4c3)cc2)c(C)c1 ?
Active

Now consider C[C@H]1CNCCCN1S(=O)(=O)c1cccc2cncc(F)c12 and answer again.
Active

Continue with COc1cccc(CN2CCC(c3cc(-c4ccnc5[nH]ccc45)[nH]n3)CC2)c1
Active
